# TARGET_DESC: recombinant α-synuclein fibrils (Homo sapiens, UniProt P37840)
# METHOD: Thioflavin T competitive binding fluorescence assay
# REPORTED_CONDITIONS: read-out: Thioflavin T assay Ki, mean ± SD, at least three experiments, NB = no binding was measurable (concentrations up to 10 μM)
RESULT_TYPE: Ki

// known answers, use as guide
1) COc1ccc2ccc(/C=C/c3ccncc3)nc2c1 = > 10 µM
2) COc1ccc2nc(-c3noc(-c4ccn5ccnc5c4)n3)ccc2c1 = > 10 µM
3) COCOc1ccc2nc(-c3noc(-c4ccn5ccnc5c4)n3)ccc2c1 = > 10 µM
4) COc1ccc2nc(/C=C/c3ccnc(OC)c3)ccc2c1 = 0.052 µM
5) FCCOc1ccc2nc(-c3noc(-c4ccn5ccnc5c4)n3)ccc2c1 = > 10 µM

Could you now look at the following compound, please?
System recombinant α-synuclein fibrils (Homo sapiens, UniProt P37840). Read-out Ki. Item COc1cc(-c2nc(-c3ccc4cc(OC(C)C)ccc4n3)no2)ccn1 . Report value.
> 10 µM
